system: T1, activated human complement C1s (human, UniProt P09871 16-688)
T1 construct: also called aC1s; active C1s
T1 sequence: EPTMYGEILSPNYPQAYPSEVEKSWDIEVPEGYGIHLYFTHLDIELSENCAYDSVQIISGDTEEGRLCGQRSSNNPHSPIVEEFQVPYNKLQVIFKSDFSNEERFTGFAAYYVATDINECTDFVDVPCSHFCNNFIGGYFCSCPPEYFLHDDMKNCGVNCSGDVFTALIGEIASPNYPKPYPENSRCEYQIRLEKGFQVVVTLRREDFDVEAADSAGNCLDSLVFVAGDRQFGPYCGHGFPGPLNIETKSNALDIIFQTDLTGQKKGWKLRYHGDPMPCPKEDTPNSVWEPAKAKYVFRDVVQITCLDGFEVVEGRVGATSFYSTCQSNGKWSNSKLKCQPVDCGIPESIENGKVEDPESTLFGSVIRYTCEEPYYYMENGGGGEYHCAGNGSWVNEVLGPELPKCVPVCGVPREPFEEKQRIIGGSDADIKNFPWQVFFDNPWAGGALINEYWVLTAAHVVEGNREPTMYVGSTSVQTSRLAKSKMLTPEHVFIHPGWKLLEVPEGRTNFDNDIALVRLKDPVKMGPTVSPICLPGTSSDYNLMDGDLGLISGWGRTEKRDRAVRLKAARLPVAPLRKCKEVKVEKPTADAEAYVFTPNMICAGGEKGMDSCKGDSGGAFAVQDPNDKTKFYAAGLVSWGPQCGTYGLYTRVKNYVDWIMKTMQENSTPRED
methodNotes: direct binding of antibody to activated C1s (aC1s); assay format not stated
recordedEndpoint: pEC50
API: returns pEC50 as number; meaning -log10 of concentration in mol/L.

pEC50 for humanized TNT005 variant VH variant 1+Vk variant 5 (antibody, V domains shown, also called VH variant 1 + VL variant 5) VH: EVQLVQSGAELKKPGASVKLSCTASGFNIKDDYIHWVKQAPGQGLEWIGRIDPADGHTKYAPKFQVKATITADTSTNTAYLQLSSLTSEDTAVYYCARYGYGREVFDYWGQGTTVTVSS VL: DIVLTQSPDSLAVSLGERATISCKASQSVDYDGDSYMNWYQQKPGQPPKLLIYDASNLESGIPARFSGSGSGTDFTLTISSLEPEDFAVYYCQQSNEDPWTFGGGTKVEIK is 9.97

Reported pEC50 of humanized TNT005 variant VH variant 4+Vk variant 2 (antibody, V domains shown, also called VH variant 4 + VL variant 2) VH: QVQLVQSGAEVKKPGASVKVSCTASGFNIKDDYIHWVRQAPGQGLEWIGRIDPADGHTKYAPKFQVKVTITADTSTSTAYMELSSLRSEDTAVYYCARYGYGREVFDYWGQGTTVTVSS VL: DIVLTQSPDSLAVSLGERATISCKASQSVDYDGDSYMNWYQQKPGQPPKILIYDASNLESGIPARFSGSGSGTDFTLTISSLEPEDFAIYYCQQSNEDPWTFGGGTKVEIK : 9.92

Form: binder = humanized TNT005 variant VH variant 5+Vk variant 5 (antibody, V domains shown, also called VH variant 5 + VL variant 5) VH: QVQLVQSGAEVKKPGASVKVSCAASGFNIKDDYIHWVRQAPGQGLEWIGRIDPADGHTKYAPKFQVKVTITADTSTSTAYMELSSLRSEDTAVYYCARYGYGREVFDYWGQGTTVTVSS VL: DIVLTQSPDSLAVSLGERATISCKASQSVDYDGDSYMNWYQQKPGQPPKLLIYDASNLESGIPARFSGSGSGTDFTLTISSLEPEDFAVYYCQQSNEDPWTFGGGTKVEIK ; pEC50 = 9.78

The measured pEC50 associated with humanized TNT005 variant VH variant 2+Vk variant 1 (antibody, V domains shown, also called VH variant 2 + VL variant 1) VH: EVQLVQSGAEVKKPGASVKLSCTASGFNIKDDYIHWVKQAPGQGLEWIGRIDPADGHTKYAPKFQVKATITADTSTNTAYLELSSLRSEDTAVYYCARYGYGREVFDYWGQGTTVTVSS VL: DIVLTQSPDSLAVSLGERATISCKASQSVDYDGDSYMNWYQQKTGQPPKILIYDASNLESGIPARFSGSGSGTDFTLTISSLEEEDFAIYYCQQSNEDPWTFGGGTKVEIK reads 9.86
